Reported Ki values follow for various compounds
Target: Alpha-1B adrenergic receptor (Mesocricetus auratus)
Sequence (P18841 whole entry): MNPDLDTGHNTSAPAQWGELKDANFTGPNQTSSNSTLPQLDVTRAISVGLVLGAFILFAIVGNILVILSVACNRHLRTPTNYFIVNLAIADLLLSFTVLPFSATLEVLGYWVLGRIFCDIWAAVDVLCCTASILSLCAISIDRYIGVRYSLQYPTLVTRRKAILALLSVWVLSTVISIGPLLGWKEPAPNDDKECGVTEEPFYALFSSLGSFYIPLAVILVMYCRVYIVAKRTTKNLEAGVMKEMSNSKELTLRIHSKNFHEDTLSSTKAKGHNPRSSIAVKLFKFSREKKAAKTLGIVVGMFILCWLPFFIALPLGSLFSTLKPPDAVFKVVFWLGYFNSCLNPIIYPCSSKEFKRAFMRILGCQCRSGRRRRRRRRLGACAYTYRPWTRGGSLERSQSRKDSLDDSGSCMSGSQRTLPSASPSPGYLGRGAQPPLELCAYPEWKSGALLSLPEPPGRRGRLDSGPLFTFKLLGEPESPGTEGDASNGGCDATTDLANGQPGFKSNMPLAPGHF

Check out these entries, answers already filled in.
> print(dat)
                                   compound  measured.parameter  observed
1  Cc1ccc(NS(C)(=O)=O)c2c1C(c1c[nH]cn1)CCC2 (configuration not stated)                  Ki   > 10 µM
2  CCS(=O)(=O)Nc1cccc(CC2CCCN2)c1 (configuration not stated)                  Ki   > 10 µM
3  CCS(=O)(=O)Nc1cccc2c1CCCC2c1c[nH]c(C)n1 (configuration not stated)                  Ki   > 10 µM
4  CCS(=O)(=O)Nc1cc(F)cc2c1CCCC2c1c[nH]cn1 (configuration not stated)                  Ki   > 10 µM

Ask: // returns reported Ki for input CCS(=O)(=O)Nc1cccc(CC2CN=CN2)c1 (configuration not stated)
Result: 10 µM

Ask: // returns reported Ki for input CCS(=O)(=O)Nc1cccc(C2CCNC2)c1 (configuration not stated)
Result: > 10 µM

Ask: // returns reported Ki for input CCS(=O)(=O)Nc1cccc2c1CCCC2CN (configuration not stated)
Result: > 10 µM

Ask: // returns reported Ki for input `CCS(=O)(=O)Nc1cccc(Cc2c[nH]cn2)c1`
Result: 0.891 µM

Ask: // returns reported Ki for input CC(c1cccc(NS(C)(=O)=O)c1)c1c[nH]cn1 (configuration not stated)
Result: > 10 µM

Ask: // returns reported Ki for input CS(=O)(=O)Nc1c(O)ccc2c1CCCC2C1=NCCN1 (configuration not stated)
Result: 2.95 µM

Ask: // returns reported Ki for input O=S(=O)(Nc1cccc2c1CCCC2c1c[nH]cn1)C1CC1 (configuration not stated)
Result: > 10 µM

Ask: // returns reported Ki for input CS(=O)(=O)Nc1cccc2c1CCCC2C1=NCCN1 (configuration not stated)
Result: 7.41 µM

* * *

Reported Ki values follow for various compounds
Biological target: Alpha-1B adrenergic receptor (Mesocricetus auratus)
Sequence (P18841 whole entry): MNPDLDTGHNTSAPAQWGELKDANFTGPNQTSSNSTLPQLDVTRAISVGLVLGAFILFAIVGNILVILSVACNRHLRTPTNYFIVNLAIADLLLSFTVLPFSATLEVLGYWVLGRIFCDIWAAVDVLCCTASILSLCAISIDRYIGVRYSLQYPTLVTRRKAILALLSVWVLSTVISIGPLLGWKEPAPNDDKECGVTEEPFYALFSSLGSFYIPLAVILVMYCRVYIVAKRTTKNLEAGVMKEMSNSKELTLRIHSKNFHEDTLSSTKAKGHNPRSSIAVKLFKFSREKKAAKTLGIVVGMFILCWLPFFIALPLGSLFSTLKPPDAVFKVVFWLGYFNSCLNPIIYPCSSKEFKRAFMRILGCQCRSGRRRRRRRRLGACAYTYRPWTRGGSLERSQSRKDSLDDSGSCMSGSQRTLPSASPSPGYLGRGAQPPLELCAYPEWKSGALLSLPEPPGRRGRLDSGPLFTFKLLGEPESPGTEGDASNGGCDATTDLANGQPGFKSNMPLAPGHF

> print(dat)
                             compound  observed
1  CCS(=O)(=O)Nc1cccc(Cc2c[nH]cn2)c1C   8.13 µM

Ask: // returns reported Ki for input `CCS(=O)(=O)Nc1cccc(-c2c[nH]cn2)c1`
Result: > 10 µM

Ask: // returns reported Ki for input CS(=O)(=O)Nc1ccc(Cl)c2c1CCCC2c1c[nH]cn1 (stereo unspecified)
Result: > 10 µM

Ask: // returns reported Ki for input Oc1cccc2c1CCCC2c1c[nH]cn1 (stereo unspecified)
Result: 0.145 µM

Ask: // returns reported Ki for input CS(=O)(=O)Nc1ccc(O)c2c1CCCC2c1c[nH]cn1 (stereo unspecified)
Result: > 10 µM

Ask: // returns reported Ki for input CC(C)S(=O)(=O)Nc1cccc2c1CCCC2c1c[nH]cn1 (stereo unspecified)
Result: > 10 µM
